Tested on: HCT116 MTAP-deleted cells
RUN_DESCRIPTION: Cell viability assay (CellTiter-Glo, 7 days), HCT116 MTAP-deleted
ASSAY_SETUP: Homo sapiens, HCT-116, 168 h
OBSERVATION_TYPE: CC50

Here's what some known entries look like.
MOLECULE | READING
Cn1ncc2c(N)nc3cc(F)c(C(=O)N(Cc4ccc(OC(F)F)cc4F)N4CCCC4=O)cc3c21 [Example 78] | < 100 nM
CN(C(=O)C1CC1)N(Cc1ccc(C(F)(F)F)cn1)C(=O)c1cc2c(cc1F)nc(N)c1cnn(C)c12 [Example 146] | < 100 nM
CN(C(=O)C1(C#N)CCC1)N(Cc1ccc(C(F)(F)F)cn1)C(=O)c1ccc2nc(N)c3cnn(C)c3c2c1 [Example 192] | 100 to 1000 nM

As a next step, examine the molecule that follows.
Recorded CC50 of CN(C(=O)C1CC1)N(Cc1ccc(-c2ccc(C(F)(F)F)s2)cn1)C(=O)c1ccc2nc(N)c3cnn(C)c3c2c1 [Example 369] , please.
< 100 nM

* * *

Answer each item with its documented CC50.
Tested on: HCT116 MTAP-deleted cells
RUN_DESCRIPTION: Cell viability assay (CellTiter-Glo, 7 days), HCT116 MTAP-deleted
ASSAY_SETUP: Homo sapiens, HCT-116, 168 h

CHEMICAL_SMILES | ASSAY_TARGET | CC50
CN(c1ccccn1)N(Cc1ccc(C(F)(F)F)cn1)C(=O)c1ccc2nc(N)c3cnn(C)c3c2c1 | HCT116 MTAP-deleted cells | < 100 nM
CNC(=O)c1ccc(-c2ccc(CN(C(=O)c3ccc4nc(N)c5cnn(C)c5c4c3)N3CCCCC3=O)nc2)cn1 | HCT116 MTAP-deleted cells | < 100 nM
CN(C(=O)C1(C(F)F)CC1)N(Cc1ccc(C(F)(F)F)cn1)C(=O)c1ccc2nc(N)c3cnn(C)c3c2c1 | HCT116 MTAP-deleted cells | 100 to 1000 nM
Nc1nc2ccc(C(=O)N(Cc3nc4ccc(Cl)cc4[nH]3)N3CCCC3=O)cc2c2ccccc12 | HCT116 MTAP-deleted cells | 100 to 1000 nM
COc1c(CN(C(=O)c2ccc3nc(N)c4cnn(C)c4c3c2)N(C)C(=O)C2CC2)ccc(Cl)c1F | HCT116 MTAP-deleted cells | < 100 nM

Give me CC50 for each of these compounds, listed below.
1. CN(C(=O)C1CC1)N(Cc1ccc(F)cc1)C(=O)c1ccc2nc(N)c3cnn(C)c3c2c1
2. CC(=O)N(C)N(Cc1ccc(-c2cnc(C(F)(F)F)s2)cc1F)C(=O)c1ccc2nc(N)c3cnn(C)c3c2c1

1. < 100 nM
2. < 100 nM

* * *

Answer each item with its documented CC50.
Test system: HCT116 MTAP-deleted cells
RUN_DESCRIPTION: Cell viability assay (CellTiter-Glo, 7 days), HCT116 MTAP-deleted
ASSAY_SETUP: Homo sapiens, HCT-116, 168 h

Here's what some known entries look like.
CHEMICAL_SMILES | ASSAY_TARGET | READING
Cn1ncc2c(N)nc3ccc(C(=O)N(Cc4ccc(C(F)(F)F)cc4F)N4CCCCC4=O)cc3c21 | HCT116 MTAP-deleted cells | < 100 nM
CN(C(=O)C1CCC1)N(Cc1ccc(C(F)(F)F)nn1)C(=O)c1cc2c(cc1F)nc(N)c1cnn(C)c12 | HCT116 MTAP-deleted cells | < 100 nM
CC(=O)N(C)N(Cc1ccc(F)cc1C#N)C(=O)c1ccc2nc(N)c3cnn(C)c3c2c1 | HCT116 MTAP-deleted cells | < 100 nM
CN(C(=O)C1CC1)N(Cc1ccc(-c2cncs2)cn1)C(=O)c1ccc2nc(N)c3cnn(C)c3c2c1 | HCT116 MTAP-deleted cells | < 100 nM
CC(=O)N(C)N(Cc1ccc(C(F)(F)F)cn1)C(=O)c1cc2c(cc1F)nc(N)c1cnn(C)c12 | HCT116 MTAP-deleted cells | < 100 nM
CC(=O)N(C)N(Cc1ccc(C(F)(F)F)cn1)C(=O)c1ccc2nc(N)c3c(cnn3C)c2c1 | HCT116 MTAP-deleted cells | 100 to 1000 nM

Give me CC50 for each of these compounds, listed below.
1. CN(C(=O)C1CC1)N(Cc1cc2cc(Cl)ccn2n1)C(=O)c1ccc2nc(N)c3cnn(C)c3c2c1
2. CC(=O)N(C)N(Cc1ccc(F)cc1Cl)C(=O)c1ccc2nc(N)c3cnn(C)c3c2c1
3. CC(=O)N(C)N(Cc1ccn(-c2ccc(C(F)(F)F)cc2)n1)C(=O)c1ccc2nc(N)c3cnn(C)c3c2c1
4. CN(C(=O)c1ncco1)N(Cc1ccc(C(F)(F)F)cc1)C(=O)c1ccc2nc(N)c3cnn(C)c3c2c1
5. Cn1ncc2c(N)nc3ccc(C(=O)N(Cc4ccc(C(F)(F)F)cn4)NC(=O)C4(F)CC4)cc3c21
6. Cn1ncc2c(N)nc3ccc(C(=O)N(Cc4ccc(C(F)(F)F)cn4)N4CCN(CC(F)(F)F)C4=O)cc3c21

< 100 nM
< 100 nM
< 100 nM
< 100 nM
< 100 nM
< 100 nM

* * *

Tested on: HCT116 MTAP-deleted cells
RUN_DESCRIPTION: Cell viability assay (CellTiter-Glo, 7 days), HCT116 MTAP-deleted
ASSAY_SETUP: Homo sapiens, HCT-116, 168 h
Answer each item with its documented CC50.

COMPOUND | CC50
CN1CCN(N(Cc2ccc(C(F)(F)F)cn2)C(=O)c2cc3c(cc2Cl)nc(N)c2cnn(C)c23)C1=O [Example 84] | < 100 nM
COc1ccc(CN(C(=O)c2ccc3nc(N)c4cnn(C)c4c3c2)N(C)C(C)=O)c(F)c1 [Example 16] | < 100 nM
Cn1ncc2c(N)nc3ccc(C(=O)N(Cc4ccc(C(F)(F)F)cn4)N4CC5(CC(F)(F)C5)OC4=O)cc3c21 [Example 345] | 100 to 1000 nM

Recorded CC50 of CC(=O)NN(Cc1nc2cc(C(F)(F)F)ccc2s1)C(=O)c1cc2c(cc1F)nc(N)c1cnn(C)c12 [Example 216] , please.
< 100 nM

* * *

Test system: HCT116 MTAP-deleted cells
RUN_DESCRIPTION: Cell viability assay (CellTiter-Glo, 7 days), HCT116 MTAP-deleted
ASSAY_SETUP: Homo sapiens, HCT-116, 168 h
OBSERVATION_TYPE: CC50

Here's what some known entries look like.
COMPOUND | CC50
CN(C(=O)[C@H]1C[C@H]1F)N(Cc1ncc(C(F)(F)F)cc1F)C(=O)c1ccc2nc(N)c3cnn(C)c3c2c1 | < 0.1 µM
Cn1ncc2c(N)nc3ccc(C(=O)N(Cc4ccc(C(F)(F)F)cn4)N4CCOC(C(F)(F)F)C4)cc3c21 (stereo not shown) | 0.1 to 1 µM
CN(C(=O)C1(C(F)(F)F)CC1)N(Cc1ccc(C(F)(F)F)cn1)C(=O)c1ccc2nc(N)c3cnn(C)c3c2c1 | 0.1 to 1 µM

Give me CC50 for each of these compounds, listed below.
1. CN(C(=O)Oc1ccccc1)N(Cc1ccc(C(F)(F)F)cn1)C(=O)c1ccc2nc(N)c3cnn(C)c3c2c1
2. CC(=O)N(C)N(Cc1ccc(C#CC2CCOC2)cc1F)C(=O)c1ccc2nc(N)c3cnn(C)c3c2c1 (stereo not shown)
3. CC(=O)N(C)N(Cc1ccc2nc(C)sc2c1)C(=O)c1ccc2nc(N)c3cnn(C)c3c2c1
4. CN(C(=O)C1CC1)N(Cc1cccc2c1OC(F)(F)O2)C(=O)c1ccc2nc(N)c3cnn(C)c3c2c1

["< 0.1 µM", "< 0.1 µM", "< 0.1 µM", "< 0.1 µM"]

* * *

Test system: HCT116 MTAP-deleted cells
RUN_DESCRIPTION: Cell viability assay (CellTiter-Glo, 7 days), HCT116 MTAP-deleted
ASSAY_SETUP: Homo sapiens, HCT-116, 168 h
OBSERVATION_TYPE: CC50

Here's what some known entries look like.
CHEMICAL_SMILES | CC50
COc1cc(C(F)(F)F)ccc1CN(C(=O)c1ccc2nc(N)c3cnn(C)c3c2c1)N(C)C(C)=O | < 100 nM
CC(=O)N(C)N(Cc1ccc(C(F)(F)F)cn1)C(=O)c1ccc2nc(N)c3sncc3c2c1 | 100 to 1000 nM
CCN(C)N(Cc1ccc(C(F)(F)F)cn1)C(=O)c1cc2c(cc1F)nc(N)c1cnn(C)c12 | < 100 nM
COCC(=O)N(C)N(Cc1ccc(C(F)(F)F)cn1)C(=O)c1ccc2nc(N)c3cnn(C)c3c2c1 | < 100 nM
CC(=O)N(C)N(Cc1ccc2scnc2c1)C(=O)c1cc2c(cc1F)nc(N)c1cnn(C)c12 | < 100 nM

Give me CC50 for each of these molecules, listed below.
1. Cn1ncc2c(N)nc3ccc(C(=O)N(Cc4ccn(-c5ccccc5F)n4)NC(=O)C4CC4)cc3c21
2. CCN(C(=O)C1CC1)N(Cc1ccc(C(F)(F)F)cn1)C(=O)c1ccc2nc(N)c3cnn(C)c3c2c1
3. CN(C(=O)C(C)(F)F)N(Cc1ccc(C(F)(F)F)cn1)C(=O)c1ccc2nc(N)c3cnn(C)c3c2c1
4. CC(=O)N(C1COC1)N(Cc1ccc(C(F)(F)F)cc1F)C(=O)c1ccc2nc(N)c3cnn(C)c3c2c1
5. Cn1ncc2c(N)nc3cc(F)c(C(=O)N(Cc4ccc(C(F)(F)F)cn4)n4ccc5cccnc54)cc3c21
6. CC(=O)N(C)N(Cc1cc2cc(C(F)(F)F)ccn2n1)C(=O)c1ccc2nc(N)c3cnn(C)c3c2c1
7. CC(=O)N1CCN(N(Cc2ccc(C(F)(F)F)cn2)C(=O)c2ccc3nc(N)c4cnn(C)c4c3c2)CC1
8. CN(C)N(Cc1ccc(C(F)(F)F)cn1)C(=O)c1ccc2nc(N)c3cscc3c2c1

1: < 100 nM; 2: < 100 nM; 3: < 100 nM; 4: < 100 nM; 5: < 100 nM; 6: < 100 nM; 7: 100 to 1000 nM; 8: 100 to 1000 nM

Give me CC50 for each of these molecules, listed below.
1. CC(=O)N(C)N(Cc1ccn(-c2ccccc2F)n1)C(=O)c1ccc2nc(N)c3cnn(C)c3c2c1
2. CN(C(=O)C1CC1)N(Cc1ccc(Cl)cc1F)C(=O)c1ccc2nc(N)c3cnn(C)c3c2c1

1. < 100 nM
2. < 100 nM
